The reported measurements were obtained from patent US7868037B2.

- Tested on: HCV replicon
- METHOD_NOTES: microbe, parasite or virus in culture
- Type: cell-based, hepatitis C virus
- MEASUREMENT_CONDITIONS: Hepatitis C virus, read-out: Replicon IC50 μM
Kindly supply the reported IC50 values for the records listed here.

State its IC50 for this compound: CCNC(=O)Nc1cccc(C#Cc2c(C#N)c3ccc(OC)cc3n2CC)c1 [Compound 220]
0.5 to 2 µM

Quickly give me recorded IC50 for CCn1cc(-c2ncco2)c2ccc(C(=O)OC)cc21 [Compound 75]
> 2 µM

Please give the documented IC50 of CCc1nnc(-c2cn(CC)c3cc(OC)ccc23)o1 [Compound 54]
> 2 µM

Supply measured IC50 of CCOC(=O)Nc1ccc(-c2c(C#N)c3ccc(OC)cc3n2CC)cc1 [Compound 121] in your reply.
0.5 to 2 µM

Give IC50 for CCn1cc(C#N)c2cc(-c3ccsc3)ccc21 [Compound 141]
> 2 µM

Note down IC50 recorded for CCn1c(-c2ccc(N(CCO)S(C)(=O)=O)cc2)c(C#N)c2ccc(OC)cc21 [Compound 828]
0.5 to 2 µM

// fetch IC50 given entry CCn1c(-c2ccc(OCCN=[N+]=[N-])cc2)c(C#N)c2ccc(OC)cc21 [Compound 266]
0.5 to 2 µM

Specify reported IC50 for the compound shown: CCOc1ccc(-c2c(C#N)c3ccc(N)cc3n2CC)cc1 [Compound 833]
0.5 to 2 µM

Recall and state the measured IC50 for CCOc1ccc2c(C#N)c(-c3ccc(N4CC(=O)NC4=O)cc3)n(CC)c2c1 [Compound 776] .
< 0.5 µM

Retrieve IC50 measured for CCn1c(-c2cccc(O)c2)c(C#N)c2ccc(OC)cc21 [Compound 288] and print it.
> 2 µM

Report IC50 for CCOC(=O)Nc1ccc2c(C#N)c(-c3ccc(OCC)cc3)n(CC)c2c1 [Compound 838]
0.5 to 2 µM

Return the recorded IC50 value; entry: CCn1c(-c2cccc(NC(N)=S)c2)c(C#N)c2ccc(OC)cc21 [Compound 767]
< 0.5 µM

Please give measured IC50 of the following entry: CCn1c(-c2ccc(N3CCCS3(=O)=O)cc2)c(C#N)c2ccc(OC)cc21 [Compound 84]
< 0.5 µM

Give IC50 for the following compound: CCCOC(=O)Nc1ccc2c(C#N)cn(-c3ccc(OC)cc3)c2c1 [Compound 97]
> 2 µM

State, in one line, measured IC50 of CCn1c(-c2ccc(N3CCNC3=O)cc2)c(C#N)c2ccc(OC)cc21 [Compound 771]
< 0.5 µM

Look up IC50 of CCOc1ccc2c(C(=O)N(C)C)c(-c3ccc(N4C(=O)C(C)N(C)C4=O)cc3)n(CC)c2c1 (stereo not drawn) [Compound 780] and report it.
0.5 to 2 µM

Note IC50 for the compound shown: CCn1c(-c2ccc3c(c2)NC(=O)CO3)c(C#N)c2ccc(OC)cc21 [Compound 334]
0.5 to 2 µM

Provide measured IC50 value, entry: CCn1c(-c2ccc(NS(C)(=O)=O)cc2)c(C#N)c2ccc(OC)cc21 [Compound 129]
0.5 to 2 µM

----------
- System: HCV replicon
- METHOD_NOTES: microbe, parasite or virus in culture
- Format: cell-based, hepatitis C virus
- MEASUREMENT_CONDITIONS: Hepatitis C virus, read-out: Replicon IC50 μM
PARAMETER: IC50

Query IC50 for CCOc1ccc(-c2c(C#N)c3ccc(NS(=O)(=O)CC)cc3n2CC)cc1 [Compound 835]
0.5 to 2 µM

Please supply the value of reported IC50 for the item CCn1c(C#Cc2ccc(N(C)S(=O)(=O)CC)cc2)c(C#N)c2ccc(OC)cc21 [Compound 157]
0.5 to 2 µM

Identify the reported IC50 for the following entry. CCn1c(-c2ccc(OCCNC=O)cc2)c(C#N)c2ccc(OC)cc21 [Compound 280]
> 2 µM

Tell me measured IC50 for CCn1c(-c2ccc(N(C)S(C)(=O)=O)cc2)c(C#N)c2ccc(OC)cc21 [Compound 180] please.
0.5 to 2 µM

# return recorded IC50 for input CCn1c(-c2ccc(OCCNC(C)=O)cc2)c(C#N)c2ccc(OC)cc21 [Compound 274]
> 2 µM

Fill in IC50 for record CCOC(=O)c1c(C)n(-c2ccc(OC)cc2)c2ccc(OC(F)F)cc12 [Compound 49]
> 2 µM

Return reported IC50. Input compound: CCn1cc(-c2cnco2)c2ccc(C(=O)OC)cc21 [Compound 72]
> 2 µM

Return reported IC50. Input compound: CCn1c(-c2ccc(OCCNS(C)(=O)=O)cc2)c(C#N)c2ccc(OC)cc21 [Compound 268]
0.5 to 2 µM

Supply reported IC50 belonging to this compound: CCn1cc(-c2ccn[nH]2)c2ccc(OC)cc21 [Compound 59]
> 2 µM
